Recorded rate of killed insects (larvae) by entry
Test system: larvae of Plutella xylostella
Test: Insecticidal effect on larvae of Plutella xylostella (spray on potted Chinese cabbage)
Assay type: in vivo
Settings: 50 ppm; 5 days after release of larvae; agonized larvae regarded as killed
Write the value in % as a bare number.

Previously resolved entries follow.
Cc1cc(C(F)(C(F)(F)F)C(F)(F)F)cc(C)c1NC(=O)c1cccc(NC(=O)C(=O)NC2CCCC2)c1
100
CCc1cc(C(F)(C(F)(F)F)C(F)(F)F)cc(C)c1NC(=O)c1cccc(NC(=O)C(=O)N(C)C2CCCC2)c1
100
Cc1cc(C(F)(C(F)(F)F)C(F)(F)F)cc(C)c1NC(=O)c1cccc(NC(=O)C(=O)NCCCCl)c1
100
CCN(C)C(=O)C(=O)Nc1cccc(C(=O)Nc2c(C)cc(C(F)(C(F)(F)F)C(F)(F)F)cc2Br)c1
100
CCN(CC)C(=O)C(=O)Nc1cccc(C(=O)Nc2c(C)cc(C(F)(C(F)(F)F)C(F)(F)F)cc2C)c1
100

Which rate of killed insects (larvae) is reported for this compound? COc1cc(C(F)(C(F)(F)F)C(F)(F)F)cc(Cl)c1NC(=O)c1cccc(NC(=O)C(=O)N(C)CC(F)(F)F)c1
100

GET /values?readout=rate of killed insects (larvae)&item= Cc1cc(C(F)(C(F)(F)F)C(F)(F)F)ccc1NC(=O)c1cccc(NC(=O)C(=O)N(C)C)c1
100

Name the recorded rate of killed insects (larvae) for CCc1cc(C(F)(C(F)(F)F)C(F)(F)F)cc(Br)c1NC(=O)c1cccc(NC(=O)C(=O)N(C)CC(F)F)c1 .
100
